Where do these numbers come from? They come from the supplement of paper PMC5908809.

# System: normal primary NK cells, pool 3 (3 donors) (IL-2 2.5 ng/mL)
# test method notes: drug sensitivity score (DSS) (DSS units); higher = more sensitive; extreme values may be limits of the assay
# reported conditions: 72 h
Known drug sensitivity score of a selection of compounds

{"columns": ["compound", "drug sensitivity score"],
 "data": [
  ["COc1cc2c(N3CCN(C(=O)Nc4ccc(OC(C)C)cc4)CC3)ncnc2cc1OCCCN1CCCCC1 [Tandutinib] (max concentration tested 1000 nM)", 0],
  ["Cn1cc(CNCC2CCN(c3ncc(C(=O)NO)cn3)CC2)c2ccccc21 [Quisinostat] (max concentration tested 1000 nM)", 22.2],
  ["CC(O)(CS(=O)(=O)c1ccc(F)cc1)C(=O)Nc1ccc(C#N)c(C(F)(F)F)c1 (configuration not stated) [Bicalutamide] (max concentration tested 10000 nM)", 0],
  ["Oc1c2ccccc2c2c3c(cccc13)N=N2 (max concentration tested 100000 nM)", 3.2],
  ["CCc1cc(Nc2nccc(-c3c(-c4ccc(OC)c(C(=O)Nc5c(F)cccc5F)c4)nc4ccccn34)n2)c(OC)cc1N1CCC(N2CCN(S(C)(=O)=O)CC2)CC1 (max concentration tested 10000 nM)", 0],
  ["CO[C@H]1/C=C\\C=C(/C)C(=O)NC2=CC(=O)C(NCCN(C)C)=C(C[C@@H](C)C[C@H](OC)[C@H](O)[C@@H](C)/C=C(\\C)[C@@H]1OC(N)=O)C2=O [Alvespimycin] (max concentration tested 1000 nM)", 10.3],
  ["O=C(CCBr)N1CCN(C(=O)CCBr)CC1 [Pipobroman] (max concentration tested 10000 nM)", 0.45],
  ["Clc1ccccc1C(c1ccccc1)(c1ccccc1)n1cccn1 [TRAM-34] (max concentration tested 1000 nM)", 0],
  ["CNNCc1ccc(C(=O)NC(C)C)cc1 [Procarbazine] (max concentration tested 10000 nM)", 0],
  ["O=C(NOC[C@H](O)CO)c1ccc(F)c(F)c1Nc1ccc(I)cc1F (max concentration tested 1000 nM)", 0],
  ["C[C@@H](Oc1cc(-c2cnn(C3CCNCC3)c2)cnc1N)c1c(Cl)ccc(F)c1Cl [Crizotinib] (max concentration tested 1000 nM)", 0.4],
  ["CN1CCc2c(c3ccccc3n2Cc2ccc(C(=O)NO)cc2)C1 [Tubastatin A] (max concentration tested 10000 nM)", 1.21]
]}
